In this section we review reported pIC50 values for a set of molecules.
# Target Entity: UniProtKB O14791
# Assay Procedure: MultiTox-Fluor Multiplex Cytotoxicity Assay in tet-inducible APOL1 T-REx-HEK293 cells (cell rescue, ratio of dead to live cells)
# Test Conditions: tet-inducible transgenic APOL1 T-REx-HEK293 cell lines, 50 ng/mL tet, 24 hours; read-out: IP50 (i.e., IC50 for cell proliferation)
pIC50: −log10 of the molar value.

Supply pIC50 value. Item: CCc1cc2c(s1)CCO[C@@]21CCN(Cc2cn(Cc3cnc(C)cn3)nn2)[C@@H](C)C1 [Compound 32]
> 7.00

Next:
Supply pIC50 value. Item: C[C@H]1C[C@@]2(CCN1Cc1cnn(CC(=O)N(C)C)c1)OC[C@@H](O)c1cc(C(F)(F)F)sc12 [Compound 886]
> 7.00

Supply pIC50 value. Item: CCc1cc2c(s1)[C@]1(CCN(Cc3cn(CCS(C)(=O)=O)nn3)[C@@H](C)C1)OCC2 [Compound 1036]
> 7.00

Supply pIC50 value. Item: CCc1cc2c(s1)CCO[C@@]21CCN(Cc2cn(C3C[C@H](CO)NC3=O)nn2)[C@@H](C)C1 (some centres unmarked) [Compound 196]
6.30 to 7.00

Supply pIC50 value. Item: C[C@H](O)CN1CC[C@]2(C[C@@H]1C)OCCc1sc(Cl)cc12 [Compound 507]
6.30 to 7.00

Supply pIC50 value. Item: CCc1cc2c(s1)CCOC21CCN(Cc2ccc(C(=O)NCCC(=O)N3CCCC3)nc2)CC1 [Compound 1049]
> 7.00

Supply pIC50 value. Item: CCc1cc2c(s1)CCOC21CCN(Cc2cnc(Nc3cccnc3)nc2)CC1 [Compound 1074]
> 7.00

Supply pIC50 value. Item: C[C@H]1C[C@@]2(CCN1Cc1cn(C)nn1)OC[C@H](O)c1cc(Cl)sc12 [Compound 813]
6.30 to 7.00

====

# Target Entity: APOL1 (Homo sapiens, UniProt O14791)
# Sequence (O14791 whole entry S342G/I384M, form open): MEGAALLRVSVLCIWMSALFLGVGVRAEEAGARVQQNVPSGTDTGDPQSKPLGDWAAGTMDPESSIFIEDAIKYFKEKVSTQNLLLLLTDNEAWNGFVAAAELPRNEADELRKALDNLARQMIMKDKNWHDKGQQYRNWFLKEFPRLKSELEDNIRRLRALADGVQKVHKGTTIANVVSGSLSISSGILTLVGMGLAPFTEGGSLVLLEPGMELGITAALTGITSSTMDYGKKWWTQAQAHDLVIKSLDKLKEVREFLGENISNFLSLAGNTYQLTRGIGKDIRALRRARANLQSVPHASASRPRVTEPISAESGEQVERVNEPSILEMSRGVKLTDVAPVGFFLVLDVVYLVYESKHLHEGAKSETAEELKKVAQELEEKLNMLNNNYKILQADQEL
# Assay Procedure: MultiTox-Fluor Multiplex Cytotoxicity Assay in tet-inducible APOL1 T-REx-HEK293 cells (cell rescue, ratio of dead to live cells)
# Test Conditions: tet-inducible transgenic APOL1 T-REx-HEK293 cell lines, 50 ng/mL tet, 24 hours; read-out: IP50 (i.e., IC50 for cell proliferation)
pIC50: −log10 of the molar value.
Quantity Name: pIC50

Observe how each entry below is paired with its result.
Fill in: pIC50 on APOL1 (Homo sapiens, UniProt O14791), entry C[C@H]1C[C@@]2(CCN1Cc1cn(CC(O)C(C)(C)O)nn1)OC[C@@](O)(C(F)F)c1cc(Cl)sc12 (stereo partly shown)
> 7.00

Fill in: pIC50 on APOL1 (Homo sapiens, UniProt O14791), entry CCc1cc2c(s1)CCOC21CCN(Cc2cn(C(C)CC(N)=O)nn2)C(C)C1 (stereo not shown)
6.30 to 7.00

Fill in: pIC50 on APOL1 (Homo sapiens, UniProt O14791), entry CCc1cc2c(s1)CCO[C@@]21CCN(Cc2cn(CC(C)n3cncn3)nn2)[C@@H](C)C1 (stereo partly shown)
6.30 to 7.00

Next:
Fill in: pIC50 on APOL1 (Homo sapiens, UniProt O14791), entry C[C@H]1C[C@@]2(CCN1CCN1CCCC1=O)OCCc1cc(CC(F)F)sc12
6.00 to 6.30

Fill in: pIC50 on APOL1 (Homo sapiens, UniProt O14791), entry CCc1cc2c(s1)CCO[C@@]21CCN(CC)[C@@H](C)C1
6.30 to 7.00

====

# Target Entity: APOL1 (Homo sapiens)
# Assay Procedure: MultiTox-Fluor Multiplex Cytotoxicity Assay in tet-inducible APOL1 T-REx-HEK293 cells (cell rescue, ratio of dead to live cells)
# Test Conditions: tet-inducible transgenic APOL1 T-REx-HEK293 cell lines, 50 ng/mL tet, 24 hours; read-out: IP50 (i.e., IC50 for cell proliferation)
# Method: The MultiTox-Fluor Multiplex Cytotoxicity Assay is a single-reagent-addition, homogeneous, fluorescence assay that measures the number of live and dead cells simultaneously in culture wells. […] The MultiTox reagent was added to each well and placed back in the incubator for an additional 30 minutes. The plate was read on the EnVision plate reader. A ratio of dead to live cells was used to normalize, and data was imported, analyzed, and fit using Genedata Screener (Basel, Switzerland) software. […]
pIC50: −log10 of the molar value.
Quantity Name: pIC50

Observe how each entry below is paired with its result.
Supply pIC50 value. Item: C[C@H]1C[C@@]2(CCN1Cc1cnn(C3CN(S(C)(=O)=O)C3)c1)OCCc1c2sc(C(F)(F)F)c1CO
> 7.00

Supply pIC50 value. Item: CCc1cc2c(s1)CCO[C@@]21CCN(CC(O)CC#N)[C@@H](C)C1 (stereo partly drawn)
6.30 to 7.00

Supply pIC50 value. Item: CCc1cc2c(s1)CCO[C@@]21CCN(Cc2cn(CC3CCCS3(=O)=O)nn2)[C@@H](C)C1 (stereo partly drawn)
> 7.00

Supply pIC50 value. Item: C[C@H]1C[C@@]2(CCN1Cc1cnn(C[C@H](O)C(=O)NC3CC3)c1)OC[C@@H](O)c1cc(C(F)(F)F)sc12
> 7.00

Supply pIC50 value. Item: CCc1cc2c(s1)CCO[C@@]21CCN(Cc2cn(CCC#N)nn2)[C@@H](C)C1
> 7.00

Next:
Supply pIC50 value. Item: C[C@H]1C[C@@]2(CCN1CC(O)C(N)=O)OCCc1cc(CC(F)F)sc12 (stereo partly drawn)
> 7.00

Supply pIC50 value. Item: Cc1cccc(CN2CC[C@]3(C[C@@H]2C)OCCc2c3sc(Cl)c2CO)n1
6.00 to 6.30

Supply pIC50 value. Item: CCOC1CO[C@@]2(CCN(Cc3cnn(CCS(C)(=O)=O)c3)[C@@H](C)C2)c2sc(Cl)cc21 (stereo partly drawn)
6.30 to 7.00

Supply pIC50 value. Item: C[C@H]1C[C@@]2(CCN1Cc1cnn(CCCC(N)=O)c1)OCCc1c2sc(C(F)(F)F)c1CO
> 7.00

Supply pIC50 value. Item: CCc1cc2c(s1)CCO[C@@]21CCN(CC2CN(C(=O)c3cnn(C)c3)C2)[C@@H](C)C1
> 7.00

Supply pIC50 value. Item: CCc1cc2c(s1)CCO[C@@]21CCN(Cc2cn(CC(F)(F)C3(O)CCOCC3)nn2)[C@@H](C)C1
6.30 to 7.00

Supply pIC50 value. Item: C[C@H]1C[C@@]2(CCN1C[C@H]1C[C@@H](NS(=O)(=O)C3CC3)C1)OCCc1cc(CC(F)F)sc12
> 7.00

Supply pIC50 value. Item: CCc1cc2c(s1)CCO[C@@]21CCN(CC2CN(C(=O)CS(=O)(=O)c3ccccc3)C2)[C@@H](C)C1
6.30 to 7.00

Supply pIC50 value. Item: C[C@H]1C[C@@]2(CCN1Cc1cccc(OCCO)c1)OCCc1cc(Cl)sc12
> 7.00

Supply pIC50 value. Item: CCc1cc2c(s1)CCOC21CCN(Cc2cn(CC(C)S(C)(=O)=O)nn2)CC1 (stereo not drawn)
6.00 to 6.30

Supply pIC50 value. Item: C[C@H]1C[C@@]2(CCN1Cc1cccc(Cl)c1O)OCCc1cc(Cl)sc12
6.00 to 6.30

====

In this section we review reported pIC50 values for a set of molecules.
# Target Entity: APOL1 (Homo sapiens, UniProt O14791)
# Assay Procedure: MultiTox-Fluor Multiplex Cytotoxicity Assay in tet-inducible APOL1 T-REx-HEK293 cells (cell rescue, ratio of dead to live cells)
# Test Conditions: tet-inducible transgenic APOL1 T-REx-HEK293 cell lines, 50 ng/mL tet, 24 hours; read-out: IP50 (i.e., IC50 for cell proliferation)
pIC50: −log10 of the molar value.

Observe how each entry below is paired with its result.
Supply pIC50 value. Item: CCc1cc2c(s1)CCO[C@@]21CCN(Cc2cn(CCOCCOCCO)nn2)[C@@H](C)C1 [Compound 195]
6.30 to 7.00

Supply pIC50 value. Item: COc1ccc(CN2CC[C@]3(C[C@@H]2C)OCCc2cc(Cl)sc23)cc1OCC(N)=O [Compound 657]
> 7.00

Supply pIC50 value. Item: CCc1cc2c(s1)CCO[C@@]21CCN(C[C@H]2C[C@@H](NS(=O)(=O)c3ccccc3F)C2)[C@@H](C)C1 [Compound 408]
> 7.00

Supply pIC50 value. Item: CCc1cc2c(s1)CCOC21CCN(Cc2cnc(NCCn3cccn3)nc2)CC1 [Compound 1078]
6.30 to 7.00

Supply pIC50 value. Item: C[C@H]1C[C@@]2(CCN1Cc1cnn(CCS(C)(=O)=O)c1)OCC(N1C(=O)c3ccccc3C1=O)c1cc(Cl)sc12 (stereo partly shown) [Compound 853]
6.30 to 7.00

Next:
Supply pIC50 value. Item: CCc1cc2c(s1)CCOC21CCN(Cc2cn(C(C)c3nnc(C)o3)nn2)CC1 (stereo not shown) [Compound 1101]
6.00 to 6.30

Supply pIC50 value. Item: CCc1cc2c(s1)CCO[C@@]21CCN(Cc2cn(C(C)(C)C(N)=O)nn2)[C@@H](C)C1 [Compound 149]
6.00 to 6.30

All values here come from patent US20250171459A1.
